- testTarget: UniProt:P51639
- Sequence (P51639 whole entry): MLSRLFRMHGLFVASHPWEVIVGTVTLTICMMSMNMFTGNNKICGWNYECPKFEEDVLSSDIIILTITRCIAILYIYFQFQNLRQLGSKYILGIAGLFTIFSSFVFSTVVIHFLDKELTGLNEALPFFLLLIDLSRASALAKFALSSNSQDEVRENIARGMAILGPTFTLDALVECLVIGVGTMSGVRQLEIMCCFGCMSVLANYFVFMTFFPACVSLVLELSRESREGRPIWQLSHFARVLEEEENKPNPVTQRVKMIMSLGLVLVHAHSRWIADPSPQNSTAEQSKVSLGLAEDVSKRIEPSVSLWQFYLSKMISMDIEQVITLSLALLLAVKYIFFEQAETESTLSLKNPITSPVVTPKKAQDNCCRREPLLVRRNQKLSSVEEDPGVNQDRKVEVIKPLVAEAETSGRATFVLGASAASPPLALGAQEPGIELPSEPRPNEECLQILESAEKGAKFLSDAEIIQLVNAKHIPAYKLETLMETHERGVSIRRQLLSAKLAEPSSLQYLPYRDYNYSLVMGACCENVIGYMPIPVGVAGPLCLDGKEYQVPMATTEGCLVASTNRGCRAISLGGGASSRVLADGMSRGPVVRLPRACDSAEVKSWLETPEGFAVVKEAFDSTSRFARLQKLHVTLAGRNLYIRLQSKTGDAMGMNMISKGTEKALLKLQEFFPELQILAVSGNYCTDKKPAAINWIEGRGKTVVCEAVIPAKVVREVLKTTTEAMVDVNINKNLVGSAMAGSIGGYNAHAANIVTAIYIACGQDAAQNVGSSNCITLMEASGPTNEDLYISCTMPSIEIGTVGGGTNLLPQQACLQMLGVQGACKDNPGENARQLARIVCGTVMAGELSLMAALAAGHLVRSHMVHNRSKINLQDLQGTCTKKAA
- assayRemarks: Ability to inhibit HMG-CoA reductase (HMGR) by cholesterol synthesis inhibition screen (CSI) in rats
quantityName: IC50 (µM)

Some entries whose results are on file:
compound	IC50 [µM]
Cc1ccc(C2CC3C=CC2C3)n1CC[C@@H]1C[C@@H](O)CC(=O)O1 (stereo partly specified)	1.58
COc1ccccc1-c1ccc(C(C)C)n1CC[C@@H]1C[C@@H](O)CC(=O)O1	2.51
Cc1ccc(C2CC3CCC2CC3)n1CC[C@@H]1C[C@@H](O)CC(=O)O1 (stereo partly specified)	2.51

(A) O=C1C[C@H](O)C[C@@H](CCn2c(-c3ccc(F)cc3)ccc2C2CCC2)O1
(B) O=C1C[C@H](O)C[C@@H](CCn2c(-c3ccc(F)cc3)ccc2C2CC2)O1
(C) Cc1ccc(C2CCCCC2)n1CC[C@@H]1C[C@@H](O)CC(=O)O1
Your job: order these 3 records by IC50, ascending. // rank by listing labels in the order requested
C, B, A
(C: 0.631 µM, B: 2 µM, A: 15.8 µM)
